Target: V1a (Homo sapiens)
Sequence (P37288 whole entry): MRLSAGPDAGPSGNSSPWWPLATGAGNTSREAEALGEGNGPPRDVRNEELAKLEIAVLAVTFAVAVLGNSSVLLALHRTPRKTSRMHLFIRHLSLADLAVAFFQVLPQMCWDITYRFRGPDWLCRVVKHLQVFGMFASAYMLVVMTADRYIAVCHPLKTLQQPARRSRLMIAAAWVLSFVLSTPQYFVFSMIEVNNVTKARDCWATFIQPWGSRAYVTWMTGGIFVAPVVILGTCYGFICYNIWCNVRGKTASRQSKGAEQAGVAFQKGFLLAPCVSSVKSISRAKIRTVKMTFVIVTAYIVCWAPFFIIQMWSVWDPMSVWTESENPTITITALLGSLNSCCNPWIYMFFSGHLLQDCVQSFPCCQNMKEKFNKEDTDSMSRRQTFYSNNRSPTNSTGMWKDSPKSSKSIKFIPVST
Assay: Human vasopression V1a receptor binding assay
Conditions: hV1a cell line (CHO); Table 18
Procedure: Human vasopression V1a receptor binding assay. A cell line expressing the human V1a receptor in CHO cells (henceforth referred to as the hV1a cell line) was obtained from Dr. Michael Brownstein, NIMH, Bethesda, Md., USA. […] Samples were counted in a liquid scintillation counter (Beckman LS3801). IC50 values were calculated by Prism Curve fitting software. […]
pKi: −log10 of the molar value.
Endpoint Name: pKi

Compound: O=C(NCc1cccc(C(F)(F)F)c1)C(CCC(=O)N1CCN(CCc2ccccc2)CC1)N1C(=O)C(N2C(=O)OCC2c2ccccc2)C1C=Cc1ccccc1 (single isomer, unassigned)
Endpoint Name: pKi
Readout Value: 8.93
--
Compound: CCCCN1CCN(C(=O)CC[C@H](C(=O)NCc2cccc(C(F)(F)F)c2)N2C(=O)[C@@H](N3C(=O)OC[C@@H]3c3ccccc3)[C@H]2/C=C/c2ccccc2)CC1
Endpoint Name: pKi
Readout Value: 7.98
--
Compound: O=C(NCc1cccc(C(F)(F)F)c1)C(C(=O)N1CCC(N2CCCCC2)CC1)N1C(=O)[C@@H](N2C(=O)OC[C@@H]2c2ccccc2)[C@H]1/C=C/c1ccccc1 (mixture of isomers)
Endpoint Name: pKi
Readout Value: 8.47
--
Compound: O=C(NCc1cc(Cl)cc(Cl)c1)[C@H](CCC(=O)N1CCN(C2CCCCC2)CC1)N1C(=O)[C@@H](N2C(=O)OC[C@@H]2c2ccccc2)[C@H]1/C=C/c1ccccc1
Endpoint Name: pKi
Readout Value: 9.05
--
Compound: CN(Cc1cccc(C(F)(F)F)c1)C(=O)[C@H](CCC(=O)N1CCN(C2CCCCC2)CC1)N1C(=O)[C@@H](N2C(=O)OC[C@@H]2c2ccccc2)[C@H]1/C=C/c1ccccc1
Endpoint Name: pKi
Readout Value: 9.68
--
Compound: O=C([C@@H](COCc1ccccc1)N1C(=O)[C@@H](N2C(=O)OC[C@@H]2c2ccccc2)[C@H]1/C=C/c1ccccc1)N1CCC(CCN2CCCCC2)CC1
Endpoint Name: pKi
Readout Value: 9.47
--
Compound: O=C(NCc1cccc(C(F)(F)F)c1)[C@H](CCC(=O)N1CCN(C2CCCCC2)CC1)N1C(=O)[C@@H](N2C(=O)OC[C@@H]2c2ccccc2)[C@H]1/C(Cl)=C/c1ccccc1
Endpoint Name: pKi
Readout Value: 9.52
--
Compound: COc1cc(OC)cc(C(C)(C)NC(=O)[C@H](CCC(=O)N2CCN(C3CCCCC3)CC2)N2C(=O)[C@@H](N3C(=O)OC[C@@H]3c3ccccc3)[C@H]2/C=C/c2ccccc2)c1
Endpoint Name: pKi
Readout Value: 8.33
--
Compound: COc1cc(CNC(=O)[C@H](CCC(=O)N2CCN(C3CCCCC3)CC2)N2C(=O)[C@@H](N3C(=O)OC[C@@H]3c3ccccc3)[C@H]2/C=C/c2ccccc2)cc(OC)c1
Endpoint Name: pKi
Readout Value: 8.19
--
Compound: O=C(NCc1cccc(C(F)(F)F)c1)[C@H](CCC(=O)N1CCN(C2CCCCC2)CC1)N1C(=O)[C@@H](N2C(=O)OC[C@@H]2c2ccccc2)[C@H]1CCc1ccccc1
Endpoint Name: pKi
Readout Value: 8.99
--
Compound: O=C(NC1(c2ccccc2)CCCCC1)[C@H](CCC(=O)N1CCN(C2CCCCC2)CC1)N1C(=O)[C@@H](N2C(=O)OC[C@@H]2c2ccccc2)[C@H]1/C=C/c1ccccc1 [Example 221G]
Endpoint Name: pKi
Readout Value: 9.03
--
Compound: O=C(CC[C@@H](C(=O)N1CCc2ccccc2C1)N1C(=O)[C@@H](N2C(=O)OC[C@@H]2c2ccccc2)[C@H]1/C=C/c1ccccc1)N1CCN(C2CCCCC2)CC1 [Example 221O]
Endpoint Name: pKi
Readout Value: 8.29
--
Compound: O=C(NCc1cccc(C(F)(F)F)c1)[C@H](CCC(=O)N1CCC(N2CCCCC2)CC1)N1C(=O)[C@@H](N2C(=O)OC[C@@H]2c2ccccc2)[C@H]1/C=C/c1ccccc1
Endpoint Name: pKi
Readout Value: 8.84
--
Compound: O=C(NC1(c2ccccc2)CCCC1)[C@H](CC(=O)N1CCC(N2CCCCC2)CC1)N1C(=O)[C@@H](N2C(=O)OC[C@@H]2c2ccccc2)[C@H]1/C=C/c1ccccc1 [Example 132D]
Endpoint Name: pKi
Readout Value: 8.41
--
Compound: CC(C)N1CCN(C(=O)C(C(=O)NCc2cccc(C(F)(F)F)c2)N2C(=O)[C@@H](N3C(=O)OC[C@@H]3c3ccccc3)[C@H]2/C=C/c2ccccc2)CC1 (mixture of isomers)
Endpoint Name: pKi
Readout Value: 7.74
--
Compound: O=C(NC1(c2ccc(F)cc2)CCCC1)[C@H](CCC(=O)N1CCN(C2CCCCC2)CC1)N1C(=O)[C@@H](N2C(=O)OC[C@@H]2c2ccccc2)[C@H]1/C=C/c1ccccc1 [Example 221I]
Endpoint Name: pKi
Readout Value: 8.13
--
Compound: O=C(NCc1cccc(OC(F)(F)F)c1)[C@H](CCC(=O)N1CCN(C2CCCCC2)CC1)N1C(=O)[C@@H](N2C(=O)OC[C@@H]2c2ccccc2)[C@H]1/C=C/c1ccccc1
Endpoint Name: pKi
Readout Value: 8.56
--
Compound: O=C(NCc1cccc(C(F)(F)F)c1)C(C(=O)N1CCC(CCN2CCCCC2)CC1)N1C(=O)[C@@H](N2C(=O)OC[C@@H]2c2ccccc2)[C@H]1/C=C/c1ccccc1 (mixture of isomers) [Example 42A]
Endpoint Name: pKi
Readout Value: 8.93

Hey, just so you know, these numbers are from patent US9597314B2.
